Assay: Terminal half life in C57BL/6 mouse at 1 mg/kg, iv bolus injection or 10 mg/kg, po by LC-MS/MS analysis
Format: ADME, organism-based
Settings: in vivo, read-out: beta t1/2 (converted)
value-kind: half-life (h)

> print(dat)
                           structure.string  assay.result
1  NCc1cccc(-c2cccc(COc3ccccc3CC(=O)O)c2)c1           1.6

* * *

Assay: Clearance in C57BL/6 mouse at 1 mg/kg, iv bolus injection or 3 mg/kg, po by LC-MS/MS analysis
Assay type: ADME, organism-based
Conditions: in vivo
value-kind: clearance (mL/min/kg)

> print(dat)
                           structure.string  assay.result
1  CC(C)c1cc(COc2ccccc2CC(=O)O)cc(-c2ccc3c(c2)[C@H](N)CO3)c1             1
2  CC(C)(C#N)c1cc(COc2ccccc2CC(=O)O)cc(-c2ccc3c(c2)[C@H](N)CO3)c1            55
3  CC(C)(O)c1cc(COc2ccccc2CC(=O)O)cc(-c2ccc3c(c2)[C@H](N)CO3)c1            19
4  CC1(C)COc2c(COc3ccccc3CC(=O)O)cc(-c3ccc4c(c3)[C@H](N)CO4)cc21             4

Values were extracted from ChEMBL document CHEMBL4619774.
